assay: Oral bioavailability in rat
Type: ADME, organism-based
condition notes: in vivo, read-out: Bioavailability_oral
measure: bioavailability (%)
Please state the figure in %; there is no need to write the unit.

Value of bioavailability reported for the compound "Cc1c(S(=O)(=O)c2ccc(=O)[nH]n2)oc2ccc(Cl)cc12" is 98

---

assay: Dissociation constant was determined
Type: physicochemical
measure: pKa

Value of pKa reported for the compound O=C1NC(=O)[C@@]2(CCOc3ccc(F)cc32)N1 [SORBINIL] is > 8

---

assay: Maximum concentration of drug in plasma was determined at 2 mg/kg orally
Type: ADME, organism-based
Set-up: dose 2 mg/kg, route oral
condition notes: in vivo, po
measure: Cmax
Could you kindly put the unit after your number?

Value of Cmax reported for the molecule "Cc1c(S(=O)(=O)c2ccc(=O)[nH]n2)oc2ccc(Cl)cc12" is 9000 ng/mL

Values compiled from ChEMBL document CHEMBL1145005.
